# measuredOn: CD73 activity in U138-MG cells (Homo sapiens (Human), UniProt P21589)
# Sequence (P21589 27-574): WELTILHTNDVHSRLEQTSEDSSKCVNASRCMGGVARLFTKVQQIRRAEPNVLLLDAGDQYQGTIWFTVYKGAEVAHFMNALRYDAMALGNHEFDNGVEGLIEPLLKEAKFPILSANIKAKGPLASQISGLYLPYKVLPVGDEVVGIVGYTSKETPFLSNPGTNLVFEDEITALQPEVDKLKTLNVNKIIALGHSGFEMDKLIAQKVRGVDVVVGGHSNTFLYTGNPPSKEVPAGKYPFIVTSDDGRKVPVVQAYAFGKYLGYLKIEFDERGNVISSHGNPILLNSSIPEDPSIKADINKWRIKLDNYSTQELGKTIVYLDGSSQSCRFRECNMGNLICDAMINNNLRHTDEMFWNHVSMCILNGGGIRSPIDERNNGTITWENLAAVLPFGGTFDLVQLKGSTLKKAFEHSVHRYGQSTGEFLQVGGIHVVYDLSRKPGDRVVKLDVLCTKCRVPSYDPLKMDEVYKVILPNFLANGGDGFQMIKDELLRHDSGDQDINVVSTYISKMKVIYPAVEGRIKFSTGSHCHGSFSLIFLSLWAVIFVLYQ
# procedureSummary: U138-MG inhibition assay (inorganic phosphate from AMP, PiColorLock Gold)
# Type: cell-based
# conditionsUsed: 100 μM AMP, 30 min pre-incubation, 1 hour at 37° C.
pIC50: −log10 of the molar value.
Mark Condition not met for pIC50 values under 8, and Condition met for everything at or above.

compound | categoryLabel
O=c1[nH]cc(-c2cc3c(N4CC(O)C(F)(F)C4)nccn3n2)c(=O)[nH]1 (stereo not shown) | Condition not met

Continue with the next compound.
Problem: Check this compound for pIC50 at or above 8: O=c1[nH]cc(-c2nc3ncnc(N4CCC(OCCN5CCCCC5)C4)c3s2)c(=O)[nH]1 (stereo not shown)
Result: Condition not met
